Each entry below carries its recorded inhibition.
- Species on record: Sus scrofa
- test: Displacement of [3H]-(+)-MK-801 from PCP binding site of NMDA receptor in pig brain cortex membranes at 1 uM after 120 mins by solid scintillation counting relative to control
- Assay type: cell membranes
reported-metric: inhibition

- CN(CCCc1ccccc1)C1CCc2cccnc2CC1 (stereo not given): 0%
- c1ccc(CCCNC2CCc3cccnc3CC2)cc1 (stereo not given): 10%
- c1ccc(CNC2CCc3cccnc3CC2)cc1 (stereo not given): 0%
- c1ccc(CCCCNC2CCc3cccnc3CC2)cc1 (stereo not given): 8%
- CN(CCCCc1ccccc1)C1CCc2cccnc2CC1 (stereo not given): 5%
